test: cell viability in Huh7 cells, primary screen, cytotoxicity control for HCV replication inhibitor project, CellTiter-Glo luminescence, basal, 48 h (AID 1143); conditions: Huh7 HCV replicon, higher = more signal, called active from +8 up or from −8 down;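 note: Huh7 hepatoma cells carrying a hepatitis C replication reporter with no stimulus; test concentration not given here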
The source made the active and inactive calls.
Hi there, I'd appreciate the recorded z-score for every entry that follows.

Query :: Entry CCOC(=O)C[C@H]1[C@H](OC(=O)c2ccccc2-c2ccccc2)[C@@H](NC(=O)CC(C)C)c2cc(OCCCO)ccc2N1C(=O)Cc1ccc(OC)cc1 : reported z-score = ?
Result :: -0.386 (inactive)

Query :: Please give the measured z-score for this compound: NCCCCCNC(=O)[C@@H]1C[C@@H]2C(=O)N[C@@H](Cc3ccccc3)C(=O)N2[C@@H]1c1ccc(O)cc1
Result :: 0.0478 (inactive)

Query :: Looking for the measured z-score of COc1ccccc1CN1C(=O)c2ccccc2[C@@]2(Cc3ccccc3N(CC(C)C)C2=O)[C@@H]1c1ccc(CO)cc1 , can you help?
Result :: 0.332 (inactive)

Query :: Look at this compound and give its reported z-score. C[N+](C)(C)CCCC[C@@H]1NC(=O)[C@H]2C[C@@H](C(=O)NCCCCCCNC(=O)CS)[C@@H](c3cccc(OCCO)c3)N2C1=O
Result :: 0.2 (inactive)

====

biological target: NADPH oxidase 5 (Homo sapiens) (UniProt Q96PH1); experiment: NOX5-dependent H2O2 signal modulators, primary screen, NOX inhibitor project, cell-based, HEK293-NOX5, Amplex Red fluorescence (AID 1161); conditions: HEK293-NOX5, ionomycin, 45 min, higher = more signal
Sequence (Q96PH1 whole entry, looked up): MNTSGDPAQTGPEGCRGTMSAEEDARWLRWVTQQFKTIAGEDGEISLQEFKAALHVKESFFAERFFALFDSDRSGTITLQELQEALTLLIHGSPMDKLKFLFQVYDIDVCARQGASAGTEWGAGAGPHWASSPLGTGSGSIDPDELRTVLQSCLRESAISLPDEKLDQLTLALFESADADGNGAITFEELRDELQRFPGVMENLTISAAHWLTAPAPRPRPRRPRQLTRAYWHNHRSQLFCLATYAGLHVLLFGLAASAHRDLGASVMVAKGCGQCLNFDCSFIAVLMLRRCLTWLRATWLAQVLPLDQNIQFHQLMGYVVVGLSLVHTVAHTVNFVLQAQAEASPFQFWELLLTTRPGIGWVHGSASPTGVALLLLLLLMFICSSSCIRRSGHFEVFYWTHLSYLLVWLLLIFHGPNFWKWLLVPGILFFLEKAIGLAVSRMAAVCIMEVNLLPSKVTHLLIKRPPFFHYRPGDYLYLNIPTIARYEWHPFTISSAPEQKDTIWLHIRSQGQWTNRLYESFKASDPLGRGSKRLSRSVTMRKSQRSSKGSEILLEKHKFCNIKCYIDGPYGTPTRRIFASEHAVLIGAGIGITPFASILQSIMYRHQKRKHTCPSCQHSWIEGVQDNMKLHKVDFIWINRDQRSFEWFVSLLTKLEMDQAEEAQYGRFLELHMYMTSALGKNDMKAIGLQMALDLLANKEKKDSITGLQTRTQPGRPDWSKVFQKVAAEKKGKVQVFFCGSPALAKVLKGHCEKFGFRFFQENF
Would you mind telling me the reported z-score of each entry?
Returns: the value as a bare number; no unit string appended.

Query :: Given COc1ccc(C#Cc2ccc3c(c2)[C@]2(C(=O)N3)[C@H](c3ccccc3OCCO)N3[C@H](c4ccccc4)[C@H](c4ccccc4)OC(=O)[C@H]3[C@@H]2C(=O)Nc2nc3ccccc3s2)cc1 , state its recorded z-score.
Result :: -4.34

Query :: Any idea what its z-score is? The compound is C=CCNC(=O)[C@H]1[C@@H]2C(=O)O[C@@H](c3ccccc3)[C@@H](c3ccccc3)N2[C@@H](c2ccccc2OCCO)[C@]12C(=O)Nc1ccc(C#CCCO)cc12
Result :: 1.93

Query :: I am curious: what z-score value has been reported for COC(=O)[C@@]1(Cc2ccc(OC)cc2)[C@H]2c3cc(C(=O)N4CCCC4)n(Cc4ccc(O)c(OC)c4)c3C[C@H]2CN1C(=O)c1ccccc1 ?
Result :: -4.33

Query :: What does the data say about its z-score? Entry: COc1ccccc1CN1C(=O)c2ccccc2[C@@]2(Cc3ccccc3N(CC(C)C)C2=O)[C@@H]1c1ccc(CO)cc1
Result :: 1.12

Query :: May I ask what z-score has been recorded for COCCCNC(=O)[C@@H]1c2ccccc2C(=O)N(Cc2ccccc2Cl)[C@H]1c1ccc(CO)cc1 ?
Result :: 0.306

Query :: State the recorded z-score for this entry: CCOC(=O)[C@H]1C/C=C/C[C@H](C(=O)OCC)C(=O)O[C@H]2[C@@H](OC)O[C@H](CO)[C@@H](OC(=O)c3c(OC)cccc3OC)[C@@H]2OC1=O
Result :: -3.76

Query :: Sample O=C1C[C@]2(c3ccc([N+](=O)[O-])cc3)C(=O)N(CC(F)(F)F)c3cc(CO)ccc3[C@H]2N1C1CCCCC1 — what was its z-score?
Result :: 0.428

Query :: Which z-score reading was recorded for the compound C=CCNC(=O)[C@@H]1[C@H]2C(=O)O[C@H](c3ccccc3)[C@H](c3ccccc3)N2[C@H](c2ccccc2OCCO)[C@@]12C(=O)N(C(=O)OCCOC)c1ccccc12 ?
Result :: -0.1

Query :: Looking for the measured z-score of NCCCCCCNC(=O)[C@@H]1C[C@@H]2C(=O)NCC(=O)N2[C@@H]1c1ccc(O)cc1 , can you help?
Result :: 0.182

Query :: Would you mind telling me what z-score value was observed for CCOC(=O)C[C@H]1[C@H](OC(=O)c2ccc(C(=O)c3ccccc3)cc2)[C@@H](NC(=O)c2ccc3ccccc3n2)c2cc(OCCCO)ccc2N1C(=O)c1ccccc1 ?
Result :: 1.2

Query :: # input compound: COc1ccc(/C=C/C=O)cc1 ; wanted: its z-score
Result :: 0.589

Query :: # query: z-score of entry N#Cc1ccc(NN2C(C(O)C(c3ccccc3)c3ccccc3)C=CC3C(=O)N(c4ccccc4)C(=O)C32)cc1 (centres undefined)
Result :: -2.49

Query :: // returns reported z-score for input COC(=O)[C@@]1(Cc2ccc(OC)cc2)[C@H]2c3cc(C(=O)N4CCCC4)n(CCN4CNCC4=O)c3C[C@H]2CN1C(=O)c1ccccc1
Result :: -4.44

Query :: # input compound: CC(C)c1ccc(NN2C(C(O)c3ccc(B(O)O)cc3)C=CC3C(=O)N(c4ccccc4)C(=O)C32)cc1 (centres undefined) ; wanted: its z-score
Result :: -4.18

====

molecular target: Fibroblast growth factor 2 (Homo sapiens) (UniProt P09038); assay: FGF2 binders on small-molecule microarrays, primary screen, biochemical, small-molecule microarray, 635/667 nm fluorescence (AID 1133); details: small-molecule microarray binding, FGF2, fluorescence 635/667; higher = more signal
Sequence (P09038 whole entry, looked up): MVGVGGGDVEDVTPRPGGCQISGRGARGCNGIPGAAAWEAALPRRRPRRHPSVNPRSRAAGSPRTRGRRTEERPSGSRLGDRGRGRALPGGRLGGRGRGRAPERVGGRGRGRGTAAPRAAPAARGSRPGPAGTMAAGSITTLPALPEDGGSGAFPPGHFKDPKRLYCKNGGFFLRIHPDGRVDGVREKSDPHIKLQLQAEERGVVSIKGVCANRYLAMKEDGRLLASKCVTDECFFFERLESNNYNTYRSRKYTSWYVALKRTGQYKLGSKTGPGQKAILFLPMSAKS
measurement kind: composite z-score
Number only, please.

Query :: I would be grateful if you could share the reported composite z-score for O=C1C[C@@](C(=O)NC2CC2)(c2ccc([N+](=O)[O-])cc2)[C@@H](c2ccc(CO)cc2I)N1C1CCCCC1 .
Result :: 1.27

Query :: For CCOC(=O)C1=CC[C@@H](c2ccccc2)N(S(=O)(=O)c2ccc(C)cc2)[C@H]1c1ccccc1C , what is its reported composite z-score?
Result :: 0.545

Query :: Fill in the blank: the reported composite z-score of COCCOC(=O)N1C(=O)[C@@]2(c3cc(C#CCC(C(=O)OC)C(=O)OC)ccc31)[C@H](c1ccccc1OCCO)N1[C@H](c3ccccc3)[C@H](c3ccccc3)OC(=O)[C@H]1[C@@H]2C(=O)N1CCN(c2ncccn2)CC1 is ____.
Result :: 1.46

====

experiment: PSAC antagonists in infected red cells, primary screen, cell-based, P. falciparum Indochina, OD700, 2 h (AID 1155);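 note: lysis reports solute entry through the parasite surface anion channel PSAC; channel blockers reduce lysis of infected cells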; settings: P. falciparum Indochina infected erythrocytes, osmotic lysis OD700; higher = more signal, called active from +8 up or from −8 down
measurement kind: z-score
Provide a numeric answer; units are not to be included.

Query :: Which z-score is listed for COCCOC(=O)N1C(=O)[C@@]2(c3cc(C#CC4(O)CCCCCC4)ccc31)[C@H](c1ccccc1OCCO)N1[C@H](c3ccccc3)[C@H](c3ccccc3)OC(=O)[C@H]1[C@@H]2C(=O)N1CCN(c2ncccn2)CC1 ?
Result :: 1.31

Query :: Which z-score is listed for C=C(COC)/C(=C/C[C@H](OC(C)=O)c1ccc(CO)o1)c1cc(C(=O)OC)ccc1OC ?
Result :: -2.29

Query :: I'd like to know its z-score. The compound in question is COCCOC(=O)N1C(=O)[C@@]2(c3cc(C#CCCO)ccc31)[C@H](C(N)=O)[C@H]1C(=O)O[C@H](c3ccccc3)[C@H](c3ccccc3)N1[C@@H]2c1ccc(O)cc1
Result :: 0.213

Query :: Please report the recorded z-score for COC(=O)[C@@]1(Cc2ccc(OC)cc2)[C@H]2c3cc(C(=O)N(C)C)n(C)c3C[C@H]2CN1C(=O)c1ccccc1 .
Result :: 0.451

Query :: Field request: z-score | item: C=CCC(OC(C)=O)[C@@H]1[C@@H](N(Cc2ccc(-c3ccccc3)cc2)C(=O)c2ccc(-c3ccccc3)cc2)c2cc(OCCCO)ccc2N1C(=O)Cc1ccc2ccccc2c1 (some centres not stated)
Result :: 0.129

Query :: Any idea what z-score was measured for C=CCNC(=O)[C@H]1[C@@H]2C(=O)O[C@@H](c3ccccc3)[C@@H](c3ccccc3)N2[C@@H](c2ccccc2OCCO)[C@]12C(=O)Nc1ccc(C#CCC(C(=O)OC)C(=O)OC)cc12 ?
Result :: 1.84

Query :: Any idea what z-score was measured for CC1(C)[C@@H]2CC(C(O)C3C=CC4C(=O)N(c5ccccc5)C(=O)C4N3Nc3ccc([N+](=O)[O-])cc3)=C[C@H]1C2 (some centres not stated) ?
Result :: 2.98

Query :: # z-score lookup, item C#C[C@H](O[Si](C#Cc1ccc(Oc2ccccc2)cc1)(C(C)C)C(C)C)c1ccccc1
Result :: 0.787

Query :: Any idea what z-score was measured for CN(C)C(=O)[C@]1(Cc2ccccc2N=[N+]=[N-])N=C(c2ccc(OCCCO)cc2)O[C@@H]1c1ccccc1N=[N+]=[N-] ?
Result :: 25.6

Query :: Which z-score is listed for C=C(CCCC)/C(=C/C[C@H](OC(C)=O)c1ccccc1OCCO)c1cc(C(=O)OC)ccc1OC ?
Result :: 0.621

Query :: I am curious: what z-score value has been reported for CCOC(=O)C[C@H]1[C@H](OC(=O)c2cc3ccccc3oc2=O)[C@@H](NC(=O)c2ccccc2)c2cc(OCCCO)ccc2N1C(=O)c1ccc2ccccc2n1 ?
Result :: 1.33

Query :: GET /values?readout=z-score&item= COC(=O)[C@]1(CCC(=O)OC(C)(C)C)N=C(c2ccc(OCCCO)cc2)O[C@@H]1c1ccccc1CN=[N+]=[N-]
Result :: 28.3

Query :: Sample CC(=O)n1cc(C(O)C2C=CC3C(=O)N(c4ccccc4)C(=O)C3N2Nc2ccc([N+](=O)[O-])cc2)c2ccccc21 (configuration not stated) — what was its z-score?
Result :: 3.57

Query :: Given the entry COCC(=C=CC[C@@H](O)c1cccc(OCCO)c1)C[C@@H](O)c1ccccn1 , report its measured z-score.
Result :: 1.42

Query :: Which z-score is listed for NC(=O)NCC#Cc1ccc2c(c1)[C@]1(C(=O)N2)[C@H](c2ccccc2OCCO)N2[C@H](c3ccccc3)[C@H](c3ccccc3)OC(=O)[C@H]2[C@@H]1C(=O)Nc1nc2ccccc2s1 ?
Result :: 1.36

Query :: Query: z-score; subject: O=C(NCCN1CCOCC1)[C@@H]1c2ccccc2C(=O)N(C2CCCCC2)[C@H]1c1ccc(CO)cc1
Result :: 1.22

Query :: Bench note: what z-score did COc1ccc(C(=O)Nc2ccc(CN3C(=O)[C@]4(O[C@H](CCO)[C@@H]([Si](C)(C)c5ccc(OC)cc5)[C@@H]4C)c4ccccc43)cc2)cc1 show?
Result :: 2.11

Query :: Please look up its z-score: O=C1OCCC/C=C\[C@H]2OC34C=CCN(Cc5ccccc5)C(=O)[C@H]3N(CCCO)C(=O)[C@@H]4C12 (some centres not stated)
Result :: 0.486

Query :: Quick one: z-score for COC(=O)[C@@]1(Cc2ccccc2)N=C(c2ccc(OCCCO)cc2)O[C@H]1c1ccccc1 ?
Result :: 12.2

Query :: Return reported z-score; argument: CC(C)NC(=O)[C@@]1(c2ccc([N+](=O)[O-])cc2)CC(=O)N(C2CCCCC2)[C@@H]1c1ccc(CO)cc1I
Result :: 2.08

Query :: Requested read-out: z-score. Entry: CN1C(=O)C2C=CC(C(O)c3ccccc3)N(N(c3ccccc3)c3ccccc3)C2C1=O (configuration not stated)
Result :: 0.693

Query :: Record request: z-score value, item [N-]=[N+]=NCc1ccccc1[C@@H]1OC(c2ccc(OCCCO)cc2)=N[C@]1(Cc1ccccc1)C(N)=O
Result :: 4.7
